- PROTOCOL_TEXT: HepG2 cytotoxicity / cell health parameters
- Type: cell-based, human
- TEST_SETTINGS: human, Mitochondrial mass AC50
ENDPOINT: AC50 (µM)
Answers are plain numbers, in µM.

Find the recorded AC50 belonging to CN(C)CCCN1c2ccccc2Sc2ccc(Cl)cc21 [Chlorpromazine, reference compound] and report it.
5.4

* * *

- Tested on: HepG2 human hepatocellular carcinoma cells
- PROTOCOL_TEXT: HepG2 cytotoxicity / cell health parameters
- Type: cell-based
- TEST_SETTINGS: HepG2; read-out: Mitochondrial mass AC50
ENDPOINT: AC50 (µM)
Answers are plain numbers, in µM.

Find the recorded AC50 belonging to C1=NCCCN=Cc2ccc[n]2[Au+][n]2cccc21.[Cl-] and report it.
41

* * *

- PROTOCOL_TEXT: in vitro
- TEST_SETTINGS: human, Caco-2
ENDPOINT: Papp B→A at 2 h, 10 µM (nm/s)
Give bare numbers, in nm/s.

Find the recorded Papp B→A at 2 h, 10 µM belonging to CC(=O)CC(c1ccccc1)c1c(O)c2ccccc2oc1=O (stereo not shown) and report it.
80

* * *

- PROTOCOL_TEXT: HepG2 cytotoxicity / cell health parameters
- Type: cell-based, human
- TEST_SETTINGS: human, Cell Loss AC50
ENDPOINT: AC50 (µM)
Give bare numbers, in µM.

Find the recorded AC50 belonging to CN(C)CCCN1c2ccccc2Sc2ccc(Cl)cc21 [Chlorpromazine, reference compound] and report it.
7.8
